# credit: patent US20100260765A1

# Target under test: T1, soluble KDR extracellular domain (ECD) (Calbiochem) (human, UniProt P35968 20-764)
# T1 construct: extracellular domain; Bought protein; also called KDR-ECD; VEGF Receptor 2 D1-7, Cat. #676490
# T1 sequence (P35968 20-764): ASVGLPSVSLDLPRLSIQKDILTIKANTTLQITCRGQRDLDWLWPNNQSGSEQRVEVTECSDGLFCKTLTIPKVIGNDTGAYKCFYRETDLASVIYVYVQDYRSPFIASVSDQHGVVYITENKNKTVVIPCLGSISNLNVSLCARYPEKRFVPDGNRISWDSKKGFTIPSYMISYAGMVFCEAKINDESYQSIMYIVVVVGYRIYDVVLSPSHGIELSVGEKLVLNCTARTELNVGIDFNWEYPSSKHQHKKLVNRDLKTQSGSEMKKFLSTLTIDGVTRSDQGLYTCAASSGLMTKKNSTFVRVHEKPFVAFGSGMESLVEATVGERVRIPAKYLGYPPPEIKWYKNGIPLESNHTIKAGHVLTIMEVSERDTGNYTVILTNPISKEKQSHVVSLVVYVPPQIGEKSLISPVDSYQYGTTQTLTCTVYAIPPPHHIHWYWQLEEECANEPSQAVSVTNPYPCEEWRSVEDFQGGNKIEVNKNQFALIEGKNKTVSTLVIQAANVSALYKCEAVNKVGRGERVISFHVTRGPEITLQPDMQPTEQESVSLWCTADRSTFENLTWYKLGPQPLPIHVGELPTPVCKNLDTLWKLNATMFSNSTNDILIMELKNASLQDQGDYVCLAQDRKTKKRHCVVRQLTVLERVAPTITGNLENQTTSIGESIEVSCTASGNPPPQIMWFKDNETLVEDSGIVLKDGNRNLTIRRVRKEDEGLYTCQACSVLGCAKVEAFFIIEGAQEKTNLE
# Protocol description: Limited Antigen ELISA, KDR coat 3.125 ng/mL, supernatant 1:25
Measured property: ELISA reading
Field format: numeric only.

Binder: 31E11 (antibody, V domains shown, Fully human mAb from XenoMouse hybridoma, tested as hybridoma supernatant) VH: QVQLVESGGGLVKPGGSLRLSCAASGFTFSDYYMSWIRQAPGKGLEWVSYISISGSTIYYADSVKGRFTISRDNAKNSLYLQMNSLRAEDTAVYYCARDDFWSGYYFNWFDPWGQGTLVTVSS VL: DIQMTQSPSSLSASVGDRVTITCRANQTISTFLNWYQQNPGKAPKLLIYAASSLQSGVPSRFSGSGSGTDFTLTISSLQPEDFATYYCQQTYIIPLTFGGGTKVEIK
Measured number: 0.2

Task: Please report the recorded ELISA reading for 24C9 (antibody, V domains shown, Fully human mAb from XenoMouse hybridoma, tested as hybridoma supernatant) VH: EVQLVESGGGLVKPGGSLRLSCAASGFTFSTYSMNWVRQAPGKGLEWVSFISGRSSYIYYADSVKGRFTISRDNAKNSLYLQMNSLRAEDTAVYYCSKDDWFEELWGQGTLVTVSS VL: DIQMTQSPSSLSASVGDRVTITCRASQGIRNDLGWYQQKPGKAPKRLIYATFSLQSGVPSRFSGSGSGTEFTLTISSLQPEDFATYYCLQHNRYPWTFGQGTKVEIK .
Result: 0.07

Task: Please report the recorded ELISA reading for 27A3 (antibody, V domains shown, Fully human mAb from XenoMouse hybridoma, tested as hybridoma supernatant) VH: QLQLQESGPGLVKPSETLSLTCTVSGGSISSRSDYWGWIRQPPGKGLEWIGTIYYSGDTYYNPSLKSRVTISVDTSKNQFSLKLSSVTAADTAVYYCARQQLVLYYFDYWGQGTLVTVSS VL: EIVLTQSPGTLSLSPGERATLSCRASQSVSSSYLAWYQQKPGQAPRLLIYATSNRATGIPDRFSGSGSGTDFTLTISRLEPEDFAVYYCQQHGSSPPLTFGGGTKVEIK .
Result: 0.15

Task: Please report the recorded ELISA reading for 21H9 (antibody, V domains shown, Fully human mAb from XenoMouse hybridoma, tested as hybridoma supernatant) VH: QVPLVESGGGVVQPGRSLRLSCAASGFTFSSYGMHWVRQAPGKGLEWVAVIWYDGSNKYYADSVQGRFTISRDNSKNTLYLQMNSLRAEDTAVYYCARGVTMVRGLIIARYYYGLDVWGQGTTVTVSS VL: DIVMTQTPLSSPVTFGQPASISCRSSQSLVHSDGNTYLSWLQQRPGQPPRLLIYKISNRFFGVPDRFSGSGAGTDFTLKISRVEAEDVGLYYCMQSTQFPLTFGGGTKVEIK .
Result: 0.22

Task: Please report the recorded ELISA reading for 33C3 (antibody, V domains shown, Fully human mAb from XenoMouse hybridoma, tested as hybridoma supernatant) VH: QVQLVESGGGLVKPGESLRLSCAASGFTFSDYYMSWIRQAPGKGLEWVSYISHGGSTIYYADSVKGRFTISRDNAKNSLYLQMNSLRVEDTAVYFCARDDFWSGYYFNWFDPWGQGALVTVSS VL: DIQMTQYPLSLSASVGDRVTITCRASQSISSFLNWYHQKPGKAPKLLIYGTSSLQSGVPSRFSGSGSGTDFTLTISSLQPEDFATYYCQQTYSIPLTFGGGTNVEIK .
Result: 0.2
